- test_system: BIR3 domain of XIAP (Homo sapiens (Human))
- Sequence (P98170 241-356 with tags or gaps limits assumed): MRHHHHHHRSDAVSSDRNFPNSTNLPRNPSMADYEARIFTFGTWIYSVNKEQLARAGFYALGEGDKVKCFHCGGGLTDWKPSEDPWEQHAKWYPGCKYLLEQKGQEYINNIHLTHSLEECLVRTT
- experimental_details: TR-FRET assay for BIR3 (inhibition of binding of XIAP BIR3 domain to SMAC-derived Peptide A)
- run_parameters: 6x His-tagged BIR3 domain (aa 241-356 of XIAP) 10 nM, Peptide A 20 nM, TR-FRET
Structures can show the parent of a compound that is named as a salt.
Examples of compounds with documented IC50 follow.
measured_metric: IC50 (µM)

>>> numeric_result("CN[C@@H](C)C(=O)N[C@H]1CN(C(C)=O)c2cc(C(F)(F)F)ccc2N(Cc2c(C3CC3)ccc3c(C#N)cccc23)C1=O [Example 189]")
29.3
>>> numeric_result("CN[C@@H](C)C(=O)N[C@H]1CN(C(=O)CS(C)(=O)=O)c2ccc(C#N)cc2N(Cc2c(OC)ccc3ccccc23)C1=O [Example 171, hydrochloride]")
41.2
>>> numeric_result("CN[C@@H](C)C(=O)N[C@H]1CN(C(=O)c2ccc(C(C)=O)cc2)c2ccccc2N(CC(=O)Nc2nc3ccccc3s2)C1=O [Example 109]")
42.3
>>> numeric_result("CN[C@@H](C)C(=O)N[C@H]1CN(C(=O)c2ccc(N)cc2)c2ccccc2N(Cc2c(OC)ccc3cc(C(=O)O)ccc23)C1=O [Example 57, hydrochloride]")
20.8
>>> numeric_result("CN[C@@H](C)C(=O)N[C@H]1CN(S(=O)(=O)c2ccccc2)c2ccccc2N(Cc2c(C)ccc3ccccc23)C1=O [Example 98e]")
31.6
>>> numeric_result("CN[C@@H](C)C(=O)N[C@H]1CN(C(=O)c2ccc(C#N)cc2)c2cc(C#N)ccc2N(Cc2c(OC)ccc3c(Br)cccc23)C1=O [Example 143, hydrochloride]")
16.3
>>> numeric_result("CC(=O)c1ccc(C(=O)N2C[C@H](NC(=O)[C@H](C)N)C(=O)N(Cc3c(OC(F)F)ccc4ccccc34)c3ccccc32)cc1 [Example 69i]")
52
>>> numeric_result("CN[C@@H](C)C(=O)N[C@H]1CN(C(=O)c2cccc(C#N)c2)c2ccccc2N(Cc2c(OC)ccc3cc(Br)ccc23)C1=O [Example 90c]")
21.9
>>> numeric_result("CN[C@@H](C)C(=O)N[C@H]1CN(C(=O)CC2CCOCC2)c2ccccc2N(Cc2c(OC)ccc3c(Br)cccc23)C1=O [Example 87, hydrochloride]")
54.4
>>> numeric_result("COc1ccc2ccccc2c1CN1C(=O)[C@@H](NC(=O)[C@H](C)N)CN(C(=O)c2ccc(N)cc2)c2ccccc21 [Example 65]")
23.6
>>> numeric_result("CN[C@@H](C)C(=O)N[C@H]1CN(C(=O)c2ccc(C(C)=O)cc2)c2ccccc2N(Cc2c(OC)ccc3cc(C(=O)O)ccc23)C1=O [Example 44, hydrochloride]")
17.4

###

- test_system: BIR2 domain of XIAP (Homo sapiens (Human), UniProt P98170, C202A/C213G)
- Sequence (P98170 124-240 with tags or gaps C202A/C213G limits assumed): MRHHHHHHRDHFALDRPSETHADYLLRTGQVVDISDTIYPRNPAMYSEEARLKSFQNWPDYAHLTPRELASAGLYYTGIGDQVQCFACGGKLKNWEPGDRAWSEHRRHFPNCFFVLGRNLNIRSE
- experimental_details: TR-FRET assay for BIR2 (inhibition of binding of XIAP BIR2 domain to SMAC-derived Peptide A)
- run_parameters: 6x His-tagged BIR2 domain (aa 124-240 of XIAP) 10 nM, Peptide A 20 nM, TR-FRET; read-out: IC50 BIR2
pIC50: −log10 of the molar value. Structures can show the parent of a compound that is named as a salt.
Mark Criterion not met for pIC50 values under 7, and Criterion met for everything at or above.

>>> group_label("CN[C@@H](C)C(=O)N[C@@H]1C(=O)N(CC(=O)Nc2ccccc2)c2ccccc2N(C(C)=O)[C@H]1C [Example 191, hydrochloride]")
"Criterion not met"
>>> group_label("CN[C@@H](C)C(=O)N[C@H]1CN(S(=O)(=O)c2ccc([N+](=O)[O-])cc2)c2ccccc2N(Cc2c(C)ccc3ccccc23)C1=O [Example 98d]")
"Criterion not met"
>>> group_label("CN[C@@H](C)C(=O)N[C@H]1CN(C(=O)c2ccc(N)cc2)c2ccccc2N(Cc2c(OC)ccc3cc(C(=O)O)ccc23)C1=O [Example 57, hydrochloride]")
"Criterion met"
>>> group_label("CN[C@@H](C)C(=O)N[C@H]1CN(C(=O)c2cccc(C#N)c2)c2ccccc2N(Cc2c(OC)ccc3cc(Br)ccc23)C1=O [Example 90c]")
"Criterion met"
>>> group_label("CN[C@@H](C)C(=O)N[C@H]1CN(C(C)=O)c2cc(C#N)ccc2N(Cc2c(C3CC3)ccc3c(C#N)cccc23)C1=O [Example 176, hydrochloride]")
"Criterion met"

Value source: patent US10053431B2
